# Test system: Mus musculus
# method_notes: Plasma concentration in CD1 NU/NU mouse at 10 mg/kg
# Type: ADME, organism-based
# Parameters: dose 10 mg/kg
# study_conditions: in vivo
quantity_name: concentration (nM)
Provide the reading as a plain figure in nM.

Prompt: Any idea what its concentration is? The molecule is CN(C)[C@H]1CCCN(c2ccc(C(F)(F)F)cc2NC(=O)c2cc(C#Cc3cnc(N)nc3)ccc2F)C1
Completion: 1660

###

In what follows, each item is paired with its IC50 for Tyrosine-protein kinase Lck (Homo sapiens, UniProt P06239).

1. Cc1ccc(C(=O)Nc2cccc(C(F)(F)F)c2)cc1C#Cc1cnc2[nH]cnc2c1	< 0.001 µM

Prompt: Any idea what its IC50 is? The compound is COc1ccc(C#Cc2cnc(N)nc2)cc1C(=O)Nc1cc(C(F)(F)F)ccc1N1CCCCC1
Completion: > 25 µM
